Source: the supplement of paper PMC9170038

- System: MS2 coat protein
- protocol-notes: apparent KD of MS2 coat protein; designed switch direction (-1 OFF switch, 1 ON switch): 1; higher = weaker reporter binding
- assay-setup: input ligand: none
assay-metric: apparent KD of MS2 coat protein

Task: # input sequence: UUCUCCUUUUUUUACAUGAGGAUCACCCAUGUUUACCCUACGUAGGAUAUCGAUGAGUGUUUGUACGAGAAGGACGUAGUAAGU [JR_SSND3_Sub058] (Eterna round: R96, puzzle: Same State NG 3) ; wanted: its apparent KD of MS2 coat protein
Result: 137 nM

Task: # input sequence: GUAGCAUACCGAGGAUAUUCAUAUACAUGAGGAUCACCCAUGUUUAGGCCACAUUAGUGGCCUUGGGAGAAGGCGGAAUGCUAC [Xeonanis - 20 Mod44] (Eterna round: R96, puzzle: Same State NG 2) ; wanted: its apparent KD of MS2 coat protein
Result: 23.4 nM

Task: # input sequence: AAUAUUAAUGCAGGAUAUGAUUAACAUGAGGAUCACCCAUGUGGUGUUGUGAGUAAGGAGAGUGAUCAGAAGGGCAUUUUUUUU [JMF's solution 36] (Eterna round: R96, puzzle: Same State NG 2) ; wanted: its apparent KD of MS2 coat protein
Result: 529 nM
